Provenance of the data: paper PMC2688778

Target: T1, RecE564 F665A (Escherichia coli K12, UniProt P15032 564-866, F665A)
T1 sequence: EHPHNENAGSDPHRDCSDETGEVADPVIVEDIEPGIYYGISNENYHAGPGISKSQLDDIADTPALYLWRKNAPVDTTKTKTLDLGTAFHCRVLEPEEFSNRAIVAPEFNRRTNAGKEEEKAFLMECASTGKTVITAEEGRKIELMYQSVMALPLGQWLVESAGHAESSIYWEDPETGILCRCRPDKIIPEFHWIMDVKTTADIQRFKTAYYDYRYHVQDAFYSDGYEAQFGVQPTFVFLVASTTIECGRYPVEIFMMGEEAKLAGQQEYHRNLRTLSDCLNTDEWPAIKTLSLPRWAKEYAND
Assay: fluorescence anisotropy
Value Kind: pKd
The meaning of pKd here: minus log10 of the concentration in molar units.

Prompt: Form field: reported pKd of F25 (dsDNA) DNA 1: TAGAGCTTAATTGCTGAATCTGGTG DNA 2: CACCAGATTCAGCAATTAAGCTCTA
Completion: 6.70
